Below is a list of entries, each paired with its recorded pKi value.
- measuredTarget: T1, Bovine carboxypeptidase A (bCPA1) (bovine, UniProt P00730 111-419)
- T1 construct: Bovine carboxypeptidase A (CPA1), purchased active enzyme; also called bovine CPA1; source: bought: Sigma
- T1 sequence (looked up): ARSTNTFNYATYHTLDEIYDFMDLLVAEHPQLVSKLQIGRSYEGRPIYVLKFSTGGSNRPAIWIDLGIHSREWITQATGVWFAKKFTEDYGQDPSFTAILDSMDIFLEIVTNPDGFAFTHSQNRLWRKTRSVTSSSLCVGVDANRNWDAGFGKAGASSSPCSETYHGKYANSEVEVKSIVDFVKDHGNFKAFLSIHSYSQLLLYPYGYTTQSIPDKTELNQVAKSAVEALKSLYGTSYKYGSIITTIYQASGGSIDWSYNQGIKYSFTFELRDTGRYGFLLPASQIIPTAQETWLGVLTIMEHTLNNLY
- assay: enzyme inhibition kinetics (tight-binding inhibitor, Morrison equation); CPAs: inhibition of hydrolysis of N-(4-methoxyphenylazoformyl)-Phe-OH (0.1 mM) at 355 nm; 20 mM Tris-HCl pH 7.5, 1% v/v DMSO, 0.05% w/v Brij-35, 0.5 M NaCl; 37 °C; enzyme constant (7.5 nM hCPA1, 6.0 nM bCPA1), increasing amounts of inhibitor
- experimentalParameters: both partners purified
Bridges are numbered along the chain shown (N, C = ends). Where no end group is shown, it is not given here.
pKi here is simply -log10 of the concentration when that concentration is written in mol/L.

des(15–51) NvCI folding/unfolding intermediate (natural protein, Nerita versicolor, UniProt P86912 1-53, looked up, disulfide 9-23, 27-38; cysteine pairing not given here, differs only in the missing Cys15-Cys51 disulfide; also called intermediate IIb; fraction IIb) FHVPDDRPCINPGRCPLVPDATCTFVCKAADNDFGYECQHVWTFEGQRVGCYA | 8.70

In the following, a different binder is considered.
Req: Can you look up the measured pKi of Nerita versicolor carboxypeptidase inhibitor (NvCI), native (natural protein, UniProt P86912 1-53, looked up, disulfide 15-51, 9-23, 27-38, comprises 53 residues, C-terminal tail Cys51-Tyr52-Ala53; also called native NvCI; 3S-S native form; source: Pichia pastoris, secreted into the extracellular medium, purified (ion exchange, size exclusion); repurified by RP-HPLC) FHVPDDRPCINPGRCPLVPDATCTFVCKAADNDFGYECQHVWTFEGQRVGCYA for me?
Resp: 11.31
